Cited source: paper doi:10.1101/2020.05.04.070177

Study Target: TRIM25 CC-PRY/SPRY (UniProt Q14258 189-630)
Sequence (Q14258 189-630): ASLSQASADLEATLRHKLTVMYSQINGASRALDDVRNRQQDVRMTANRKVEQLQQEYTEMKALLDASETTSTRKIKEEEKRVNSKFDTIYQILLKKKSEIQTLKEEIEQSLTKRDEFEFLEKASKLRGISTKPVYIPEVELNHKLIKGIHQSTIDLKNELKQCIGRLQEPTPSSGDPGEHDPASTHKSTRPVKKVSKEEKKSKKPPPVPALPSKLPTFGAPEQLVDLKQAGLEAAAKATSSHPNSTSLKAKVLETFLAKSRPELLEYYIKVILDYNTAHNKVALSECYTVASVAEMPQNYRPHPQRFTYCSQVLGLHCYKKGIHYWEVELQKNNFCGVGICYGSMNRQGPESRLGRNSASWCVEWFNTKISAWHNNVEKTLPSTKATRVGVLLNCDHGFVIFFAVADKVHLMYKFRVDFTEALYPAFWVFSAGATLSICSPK
Test Method Notes: ITC; first of two fitted sites; ITC and filter binding: 20 mM MES pH 6.5, 75 mM NaCl, 0.5 mM TCEP (ITC 20 C, filter binding on ice); NMR: 20 mM Na phosphate pH 6.5, 150 mM NaCl, 2 mM TCEP, 293 K
Reported Conditions: protein: recombinant; tags: His-Trx (removed); chain copies: 2; hairpin
Endpoint Label: pKd
In simple prose, pKd is minus the logarithm base ten of a concentration in moles per litre.

What the record says about UUUUAUCUGAGUUGGAGGUGAAG (structured_RNA) [Lnczc3h7a-SL] : pKd is 6.31
